Item-by-item account of FHH TP AUC (pmol · hr/mill cells)
Test system: fresh human hepatocytes
procedure summary: Release of active metabolite in fresh human hepatocytes
Assay type: in vitro ADME
condition: 10 μM
Give just the numeric value; pmol · hr/mill cells need not be written.

Some solved cases for reference:
CCOc1nc(N)nc2c1ncn2[C@@H]1O[C@@H]2COP(=O)(N[C@@H](C)C(=O)OC3CCCC3)O[C@H]2[C@@]1(C)F (single isomer, unassigned) [Compound 10 Diastereomer 1]
1944
CCOc1nc(N)nc2c1ncn2[C@@H]1O[C@@H]2COP(=O)(N[C@@H](C)C(=O)OCC(C)C)O[C@H]2[C@@]1(C)F (single isomer, unassigned) [Compound 4 Diastereomer 1]
1759
CCOc1nc(N)nc2c1ncn2[C@@H]1O[C@@H]2COP(=O)(N[C@@H](C)C(=O)OC(C)C)O[C@H]2[C@@]1(C)O (single isomer, unassigned) [Compound 5 Diastereomer 2]
2108

--- query ---
Tell me FHH TP AUC (pmol · hr/mill cells) reported for CCOc1nc(N)nc2c1ncn2[C@@H]1O[C@@H]2COP(=O)(N[C@@H](C)C(=O)OC(C)C)O[C@H]2[C@@]1(C)F (single isomer, unassigned) [Compound 1 Diastereomer 2]
5774

Where do the numbers come from? From patent US9109001B2.
